The measurements presented in this section are drawn from patent US8735384B2.

- measured_target: BACE1 (Homo sapiens, UniProt P56817)
- Sequence (P56817 46-501, species assumed): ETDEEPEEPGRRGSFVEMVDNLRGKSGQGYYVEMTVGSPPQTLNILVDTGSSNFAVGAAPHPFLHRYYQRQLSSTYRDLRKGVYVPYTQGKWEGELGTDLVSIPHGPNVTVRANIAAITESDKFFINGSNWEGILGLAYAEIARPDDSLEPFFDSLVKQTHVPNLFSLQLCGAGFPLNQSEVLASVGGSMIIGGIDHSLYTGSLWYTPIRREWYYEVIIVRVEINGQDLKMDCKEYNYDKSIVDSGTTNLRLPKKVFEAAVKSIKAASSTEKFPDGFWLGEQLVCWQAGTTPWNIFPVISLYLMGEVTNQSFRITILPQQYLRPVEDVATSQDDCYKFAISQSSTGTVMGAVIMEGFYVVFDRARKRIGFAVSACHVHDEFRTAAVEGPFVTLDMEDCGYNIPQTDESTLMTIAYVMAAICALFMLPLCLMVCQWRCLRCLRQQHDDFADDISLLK
- test: In vitro enzymatic BACE FRET assay
- Format: biochemical
- conditions_used: beta secretase enzyme 0.2 nM, FRET substrate 50 nM, pH 4.2; read-out: BACE1 FRET assay (IC50 class)
pIC50: −log10 of the molar value.
measured_quantity: pIC50

Form field pIC50, entry CC(C)(C)CCc1cccc(C(=O)N2CCCC2)c1-c1ccc2nc(N)c(N3CCOCC3)cc2c1 [Example 45] : > 7.00

Form field pIC50, entry CCN(CC)C(=O)c1cccc(C)c1-c1ccc2nc(N)c(N3CCOCC3)cc2c1 [Example 102] : 6.30 to 7.00

Form field pIC50, entry CCN(C(=O)c1cccc(C)c1-c1ccc2nc(N)c(N3CCOCC3)cc2c1)C1CC1 [Example 107] : 6.30 to 7.00

Form field pIC50, entry Nc1nc2ccc(-c3ccccc3C(=O)OC3CCCC3)cc2cc1N1CCOCC1 [Example 145] : > 7.00
